Overview of recorded interaction score for various binders
- ASSAY TARGET: T1, 4H2691-bN
- T1 chain: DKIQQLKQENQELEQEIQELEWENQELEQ
- PROTOCOL DESCRIPTION: two-hybrid library CCNG1;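 note: natural log of median RNA to DNA barcode read ratio; higher means stronger binding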
MEASUREMENT KIND: interaction score

> print(dat)
                                     binder   measurement.kind     val
1  DEIQQLEQENQELEQENQELEWEIQELEQ [4H145-bN]  interaction score   -1.25
2  DENQQLEQKIQELKQEIQELEWENQELEQ [4H1347-bN]  interaction score  -0.113
3  DKIQQLKQENQELEQEIQELEWENQELEQ [4H2691-bN]  interaction score  -0.448
4  DKIQQLKQEIQELEQKNQELKWENQELEQ [4H2619-bN]  interaction score   -1.49
